- experimental system: JAK2 (Homo sapiens (Human), UniProt O60674)
- test name: Enzyme assay (Assay Example^a 1), JAK2
- Format: biochemical
- assay setup: ATP 100 μM
Rule: IC50 below 0.07 µM gives 1.0, anything at or above gives 0.0.

• N#CC(NC(=O)[C@H]1CC[C@H](c2nnn3cnc4[nH]ccc4c23)CC1)c1ccccc1 (some centres unmarked) = 0.0
• CN(C)[C@@H]1CCN(C[C@H]2CC[C@H](c3nnn4cnc5[nH]ccc5c34)CC2)C1 = 0.0
• Cc1c(CN2CCC(c3nnn4cnc5[nH]ccc5c34)CC2)c(Cl)nn1CC(F)(F)F = 0.0
• Cc1ccc(CNC(=O)[C@H]2CC[C@H](c3nnn4cnc5[nH]ccc5c34)CC2)o1 = 1.0
• c1cc2c(ncn3nnc([C@H]4CC[C@H](CNC5COC5)CC4)c23)[nH]1 = 0.0
• O=C(NCC(F)(F)F)C1CN(C[C@H]2CC[C@H](c3nnn4cnc5[nH]ccc5c34)CC2)C1 = 1.0
• O=C(NCCc1ccc(Cl)cc1)[C@H]1CC[C@H](c2nnn3cnc4[nH]ccc4c23)CC1 = 1.0
• Clc1ccc(CN2CCC(c3nnn4cnc5[nH]ccc5c34)CC2)c(Cl)n1 = 1.0
• CC(C#N)=C1CCC(c2nnn3cnc4[nH]ccc4c23)CC1 (centres unmarked) = 1.0
• O=C(O)C1CN(C[C@H]2CC[C@H](c3nnn4cnc5[nH]ccc5c34)CC2)C1 = 1.0
• Fc1ccc(NC[C@H]2CC[C@H](c3nnn4cnc5[nH]ccc5c34)CC2)cc1F = 1.0
• [N-]=[N+]=NC[C@H]1CC[C@H](c2nnn3cnc4[nH]ccc4c23)CC1 = 1.0
• N#CCOc1ccc(CN2CCC(c3nnn4cnc5[nH]ccc5c34)CC2)cc1 = 0.0
• NC[C@H]1CC[C@H](c2nnn3cnc4[nH]ccc4c23)CC1 = 1.0
• c1cc2c(ncn3nnc([C@H]4CC[C@H](CN5CCC(N6CCOCC6)CC5)CC4)c23)[nH]1 = 0.0
• O=C(C[C@H]1CC[C@H](c2nnn3cnc4[nH]ccc4c23)CC1)NCC(F)(F)F [442b] = 1.0

---

- experimental system: JAK3 (Homo sapiens (Human))
- Sequence (P52333 whole entry): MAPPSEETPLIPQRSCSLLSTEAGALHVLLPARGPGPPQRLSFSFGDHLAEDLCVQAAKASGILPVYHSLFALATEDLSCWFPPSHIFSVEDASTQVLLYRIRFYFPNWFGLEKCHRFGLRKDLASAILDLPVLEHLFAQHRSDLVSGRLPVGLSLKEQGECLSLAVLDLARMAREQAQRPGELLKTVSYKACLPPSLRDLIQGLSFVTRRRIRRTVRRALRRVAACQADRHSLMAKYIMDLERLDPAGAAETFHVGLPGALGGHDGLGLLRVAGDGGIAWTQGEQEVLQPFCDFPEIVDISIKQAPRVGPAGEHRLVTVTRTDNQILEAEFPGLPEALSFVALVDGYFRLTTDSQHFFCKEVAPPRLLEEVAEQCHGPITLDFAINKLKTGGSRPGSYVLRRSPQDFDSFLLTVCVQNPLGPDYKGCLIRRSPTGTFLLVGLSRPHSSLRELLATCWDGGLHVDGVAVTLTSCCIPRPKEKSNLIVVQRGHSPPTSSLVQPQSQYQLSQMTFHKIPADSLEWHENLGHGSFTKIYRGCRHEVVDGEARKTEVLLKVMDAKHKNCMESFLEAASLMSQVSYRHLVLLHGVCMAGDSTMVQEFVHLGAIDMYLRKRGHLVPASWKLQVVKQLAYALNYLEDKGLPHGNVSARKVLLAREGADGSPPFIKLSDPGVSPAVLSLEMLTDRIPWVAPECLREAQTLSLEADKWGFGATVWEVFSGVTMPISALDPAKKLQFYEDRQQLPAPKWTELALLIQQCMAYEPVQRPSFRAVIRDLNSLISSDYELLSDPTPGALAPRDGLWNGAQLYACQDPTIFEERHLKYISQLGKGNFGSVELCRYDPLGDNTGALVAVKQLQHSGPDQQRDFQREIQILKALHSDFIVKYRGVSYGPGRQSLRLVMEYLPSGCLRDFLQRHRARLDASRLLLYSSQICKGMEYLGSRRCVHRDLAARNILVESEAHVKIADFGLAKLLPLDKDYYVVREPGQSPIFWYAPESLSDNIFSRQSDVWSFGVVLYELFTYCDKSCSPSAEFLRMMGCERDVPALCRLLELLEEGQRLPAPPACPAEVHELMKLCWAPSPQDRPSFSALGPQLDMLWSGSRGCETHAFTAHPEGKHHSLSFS
- test name: Enzyme assay (Assay Example^a 1), JAK3
- Type: biochemical
- assay setup: ATP 100 μM
The compounds listed here are annotated with their IC50.
value type: IC50 (µM)

* Clc1n[nH]c2ccc(CN3CCC(c4nnn5cnc6[nH]ccc6c45)CC3)cc12 | 0.38
* N#CCN(C[C@H]1CC[C@H](c2nnn3cnc4[nH]ccc4c23)CC1)C(=O)CC(F)(F)F | 0.054
* N#CCNS(=O)(=O)C[C@H]1CC[C@H](c2nnn3cnc4[nH]ccc4c23)CC1 | 0.069
* CC1(C)CC1NC[C@H]1CC[C@H](c2nnn3cnc4[nH]ccc4c23)CC1 (stereo partly drawn) | 0.5
* FC1(F)CCN(C[C@H]2CC[C@H](c3nnn4cnc5[nH]ccc5c34)CC2)C1 | 0.53
* N#CC=C1CCC(c2nnn3cnc4[nH]ccc4c23)CC1 (stereo not drawn) | 0.49

---

- experimental system: JAK2 (Homo sapiens (Human), UniProt O60674)
- test name: Enzyme assay (Assay Example^a 1), JAK2
- Type: biochemical
- assay setup: ATP 100 μM; Table^a 154
Where a name gives a salt, the structure may show the parent alone.
value type: IC50 (µM)

- c1nc(CCNC[C@H]2CC[C@H](c3nnn4cnc5[nH]ccc5c34)CC2)c[nH]1 [compound 192, hydrochloride]: 0.038
- OC(CN[C@H]1CC[C@H](c2nnn3cnc4[nH]ccc4c23)CC1)(c1ccc(Cl)cc1)C(F)(F)F (mixture of isomers) [199b]: 0.035
- CC(NC[C@H]1CC[C@H](c2nnn3cnc4[nH]ccc4c23)CC1)c1ccc(F)c(F)c1 (mixture of isomers): 0.011
- CN(C)[C@H]1CCN(C[C@H]2CC[C@H](c3nnn4cnc5[nH]ccc5c34)CC2)C1: 0.13

---

- experimental system: UniProtKB P23458
- test name: Enzyme assay (Assay Example^a 1), JAK1
- Type: biochemical
- assay setup: ATP 100 μM
value type: IC50 (µM)

* N#CCC(=O)N(C[C@H]1CC[C@H](c2nnn3cnc4[nH]ccc4c23)CC1)C1CC1 [compound 409] | 0.019
* N#C[C@@H]1CCN(C[C@H]2CC[C@H](c3nnn4cnc5[nH]ccc5c34)CC2)C1 [compound 301] | 0.024
* N#CCC(=O)N(CC(F)(F)F)C[C@H]1CC[C@H](c2nnn3cnc4[nH]ccc4c23)CC1 [compound 407] | 0.0034
* CC(C#N)=C1CCC(c2nnn3cnc4[nH]ccc4c23)CC1 (centres unmarked) [compound 437] | 0.02
* COc1ccc(C(O)(CN[C@H]2CC[C@H](c3nnn4cnc5[nH]ccc5c34)CC2)C(F)(F)F)cc1 (some centres unmarked) [388b] | 0.0012
* N#Cc1ccc(CN2CCC(c3nnn4cnc5[nH]ccc5c34)CC2)cc1F [compound 222] | 0.0035
* N#Cc1cc(CN2CCC(c3nnn4cnc5[nH]ccc5c34)CC2)ccc1C(F)(F)F [compound 243] | 0.044
* N#CCNC(=O)C[C@H]1CC[C@@H](c2nnn3cnc4[nH]ccc4c23)CC1 [443a] | 0.026

---

- experimental system: JAK3 (Homo sapiens (Human))
- test name: Enzyme assay (Assay Example^a 1), JAK3
- Type: biochemical
- assay setup: ATP 100 μM; Table^a 154
value type: IC50

• CC(=O)OC[C@H]1CC[C@H](c2nnn3cnc4[nH]ccc4c23)CC1 [compound 72] = 0.048 µM
• CS(=O)(=O)c1ccc(CN2CCC(c3nnn4cnc5[nH]ccc5c34)CC2)cc1 [compound 156] = 0.52 µM
• O=C1NCCN1CCNC[C@H]1CC[C@H](c2nnn3cnc4[nH]ccc4c23)CC1 [compound 191] = 0.92 µM
• c1cc2c(ncn3nnc(C4CC5CCC4C5)c23)[nH]1 (centres unmarked) [compound 65] = 0.15 µM
• Clc1ccc(NC2CCC(c3nnn4cnc5[nH]ccc5c34)CC2)cc1 (centres unmarked) [compound 205] = > 1 µM
• CC(NC[C@H]1CC[C@H](c2nnn3cnc4[nH]ccc4c23)CC1)c1ccc(F)c(F)c1 (mixture of isomers) [compound 109] = 0.16 µM
• Clc1ccc(CCNC[C@H]2CC[C@H](c3nnn4cnc5[nH]ccc5c34)CC2)cc1 [compound 178] = 0.17 µM
• N#CC1CCN(C[C@H]2CC[C@H](c3nnn4cnc5[nH]ccc5c34)CC2)CC1 [compound 89] = > 1 µM
• Fc1ccc(CN2CCC(c3nnn4cnc5[nH]ccc5c34)CC2)nc1 [compound 162] = 0.68 µM
• Fc1cc(CN2CCC(c3nnn4cnc5[nH]ccc5c34)CC2)ccc1C(F)(F)F [compound 167] = 0.17 µM
• c1cc2c(ncn3nnc(C4CCN(Cc5csnn5)CC4)c23)[nH]1 [compound 152] = 0.032 µM
• CS(=O)(=O)c1ccc2c(c1)CCN2C[C@H]1CC[C@H](c2nnn3cnc4[nH]ccc4c23)CC1 [compound 189] = 0.61 µM
• Fc1ccc(CN[C@H]2CC[C@@H](c3nnn4cnc5[nH]ccc5c34)CC2)cc1 [195a] = > 1 µM
• FC(F)(F)C1CCC(N2CCC(c3nnn4cnc5[nH]ccc5c34)CC2)CC1 (single isomer, unassigned) [56b] = > 1 µM
• C[C@H](O)CNC[C@H]1CC[C@H](c2nnn3cnc4[nH]ccc4c23)CC1 [compound 184] = 0.58 µM
• FC(F)(F)c1ccc(CN[C@H]2CC[C@@H](c3nnn4cnc5[nH]ccc5c34)CC2)cc1 [138a] = > 1 µM
• N#Cc1ccc(NC[C@H]2CC[C@H](c3nnn4cnc5[nH]ccc5c34)CC2)cc1C(F)(F)F [compound 105] = > 1 µM

---

- experimental system: Tyk2 (Homo sapiens (Human))
- Sequence (P29597 whole entry): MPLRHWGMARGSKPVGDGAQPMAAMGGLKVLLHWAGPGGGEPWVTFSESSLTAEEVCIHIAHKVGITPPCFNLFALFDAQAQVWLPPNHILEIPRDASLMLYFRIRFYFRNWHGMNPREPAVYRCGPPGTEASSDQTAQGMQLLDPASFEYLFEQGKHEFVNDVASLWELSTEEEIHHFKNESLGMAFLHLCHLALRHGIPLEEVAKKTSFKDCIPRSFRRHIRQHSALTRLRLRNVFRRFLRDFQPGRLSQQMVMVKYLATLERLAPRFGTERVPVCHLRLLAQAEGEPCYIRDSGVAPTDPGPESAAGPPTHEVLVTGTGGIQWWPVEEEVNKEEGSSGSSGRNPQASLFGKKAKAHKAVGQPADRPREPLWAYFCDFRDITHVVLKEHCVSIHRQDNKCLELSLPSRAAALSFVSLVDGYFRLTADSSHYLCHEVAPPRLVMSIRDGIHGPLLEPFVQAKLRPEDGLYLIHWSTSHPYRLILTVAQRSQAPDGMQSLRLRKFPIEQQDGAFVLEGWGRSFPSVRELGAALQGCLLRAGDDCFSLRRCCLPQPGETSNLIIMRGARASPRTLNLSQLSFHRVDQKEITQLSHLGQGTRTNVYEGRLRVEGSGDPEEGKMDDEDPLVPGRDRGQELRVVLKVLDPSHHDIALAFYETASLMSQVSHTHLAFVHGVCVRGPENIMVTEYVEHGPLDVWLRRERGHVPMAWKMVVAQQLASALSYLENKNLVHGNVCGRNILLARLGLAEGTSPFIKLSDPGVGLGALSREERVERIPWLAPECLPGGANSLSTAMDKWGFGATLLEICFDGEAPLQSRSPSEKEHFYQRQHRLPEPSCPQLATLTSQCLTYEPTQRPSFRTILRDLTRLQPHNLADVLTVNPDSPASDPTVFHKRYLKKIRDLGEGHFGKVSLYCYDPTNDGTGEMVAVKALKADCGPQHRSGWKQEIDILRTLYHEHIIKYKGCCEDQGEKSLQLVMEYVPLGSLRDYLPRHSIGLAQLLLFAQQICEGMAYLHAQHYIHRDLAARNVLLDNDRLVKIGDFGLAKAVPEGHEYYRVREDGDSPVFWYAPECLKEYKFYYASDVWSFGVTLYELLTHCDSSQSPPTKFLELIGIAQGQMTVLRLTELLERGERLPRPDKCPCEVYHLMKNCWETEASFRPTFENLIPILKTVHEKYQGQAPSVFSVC
- test name: Enzyme assay (Assay Example^a 1), Tyk2
- Format: biochemical
- assay setup: ATP 100 μM
Grouping key: IC50. Bins: low bin = under 0.2 µM, mid bin = from 0.2 µM up to 0.4 µM, high bin = 0.4 µM and over

• CC(C)(O)c1cn(C[C@H]2CC[C@H](c3nnn4cnc5[nH]ccc5c34)CC2)nn1 = high bin
• N#CC1(c2ccccc2)CCN(C[C@H]2CC[C@H](c3nnn4cnc5[nH]ccc5c34)CC2)CC1 = high bin
• N#Cc1ccc(NC[C@H]2CC[C@H](c3nnn4cnc5[nH]ccc5c34)CC2)c2ccccc12 = high bin
• N#Cc1ccc(NC[C@H]2CC[C@H](c3nnn4cnc5[nH]ccc5c34)CC2)cc1C#N = high bin
• CC(C)(C)OC(=O)N[C@H]1CCN(C[C@H]2CC[C@H](c3nnn4cnc5[nH]ccc5c34)CC2)C1 = high bin
• COCCN(C)C[C@H]1CC[C@H](c2nnn3cnc4[nH]ccc4c23)CC1 = high bin
• N#CC=C1CCC(c2nnn3cnc4[nH]ccc4c23)CC1 (stereo not shown) = low bin
• COc1ccc(C(O)(CN[C@H]2CC[C@H](c3nnn4cnc5[nH]ccc5c34)CC2)C(F)(F)F)cc1 (stereo partly shown) [388b] = mid bin
• N#CCC(=O)N(C[C@H]1CC[C@H](c2nnn3cnc4[nH]ccc4c23)CC1)C1CC1 = high bin
• Cc1ccc(CNC(=O)[C@H]2CC[C@H](c3nnn4cnc5[nH]ccc5c34)CC2)o1 = mid bin
• O=C1NOC[C@H]1NC[C@H]1CC[C@H](c2nnn3cnc4[nH]ccc4c23)CC1 = mid bin
• FC(F)(F)CN(CC1CC1)C[C@H]1CC[C@H](c2nnn3cnc4[nH]ccc4c23)CC1 = high bin
• N#CCC[C@H]1CC[C@H](c2nnn3cnc4[nH]ccc4c23)CC1 = low bin
• C#CCNC[C@H]1CC[C@H](c2nnn3cnc4[nH]ccc4c23)CC1 = mid bin
• O=C1SCCC1NC[C@H]1CC[C@H](c2nnn3cnc4[nH]ccc4c23)CC1 (stereo partly shown) = low bin
• O=C(NCC(O)(c1ccccc1)C(F)(F)F)[C@H]1CC[C@H](c2nnn3cnc4[nH]ccc4c23)CC1 (stereo partly shown) = high bin
• CC1(C)CC1NC[C@H]1CC[C@H](c2nnn3cnc4[nH]ccc4c23)CC1 (stereo partly shown) = mid bin
• Clc1ccc(C2(NC[C@H]3CC[C@H](c4nnn5cnc6[nH]ccc6c45)CC3)COC2)cc1 = high bin
• OC12CC3CC(C1)C(NC[C@H]1CC[C@H](c4nnn5cnc6[nH]ccc6c45)CC1)C(C3)C2 (stereo partly shown) [compound 303] = high bin
• c1cc2c(ncn3nnc([C@H]4CC[C@H](CN5CCC5)CC4)c23)[nH]1 = mid bin
• O=C(N[C@H]1CCN(C[C@H]2CC[C@H](c3nnn4cnc5[nH]ccc5c34)CC2)C1)C(F)(F)F = high bin
• O=S(=O)(C[C@H]1CC[C@H](c2nnn3cnc4[nH]ccc4c23)CC1)NC1CC1 = high bin
• N#CCNC(=O)[C@H]1CC[C@H](c2nnn3cnc4[nH]ccc4c23)CC1 = low bin
• OC1(C(F)(F)F)CN(C[C@H]2CC[C@H](c3nnn4cnc5[nH]ccc5c34)CC2)C1 = mid bin
• FC(F)(F)CN(CC1CC1)[C@H]1CC[C@H](c2nnn3cnc4[nH]ccc4c23)CC1 = high bin
